Target Or Test System: Env of HIV-1 strain PVO.4 (HIV-1)
Experimental Details: cell-based or functional assay
Listed next: entries and their corresponding neutralization IC50.
Dear colleague, please return just the value in µg/mL, with no unit written.

Example binders with recorded neutralization IC50:
* γ52κ3 (antibody, V domains shown) VH: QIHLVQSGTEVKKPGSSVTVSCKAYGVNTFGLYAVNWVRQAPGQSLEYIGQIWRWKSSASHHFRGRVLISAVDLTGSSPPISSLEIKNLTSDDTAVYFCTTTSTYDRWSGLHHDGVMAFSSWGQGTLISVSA VL: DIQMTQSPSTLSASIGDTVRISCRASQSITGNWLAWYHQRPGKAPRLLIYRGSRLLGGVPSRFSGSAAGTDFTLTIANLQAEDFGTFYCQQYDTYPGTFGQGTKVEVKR | 1.92
* 8ANC3630 (antibody, V domains shown) VH: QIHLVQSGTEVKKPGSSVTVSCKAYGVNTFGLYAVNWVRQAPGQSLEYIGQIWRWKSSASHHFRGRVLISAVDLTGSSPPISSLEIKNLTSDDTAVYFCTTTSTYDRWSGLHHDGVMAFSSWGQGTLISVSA VL: DIQMTQSPSTLSASIGDTVRISCRASQSITGGWLAWYHQRPGKAPRLLIYRGSRLLGGVPSRFSGSAAGTDFTLTIANLQAEDFGTFYCQQYDTYPGTFGQGTKVEVKR | 0.102

// query Give the measured neutralization IC50 for γ46κ5 (antibody, V domains shown) VH: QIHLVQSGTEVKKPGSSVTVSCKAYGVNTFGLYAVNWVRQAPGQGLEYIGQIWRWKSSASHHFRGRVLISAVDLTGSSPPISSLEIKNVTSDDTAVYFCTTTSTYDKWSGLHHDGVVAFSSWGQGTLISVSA VL: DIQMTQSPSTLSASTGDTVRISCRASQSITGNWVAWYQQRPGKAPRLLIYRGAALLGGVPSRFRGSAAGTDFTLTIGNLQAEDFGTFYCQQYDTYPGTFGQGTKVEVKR
// result 0.129
